Biological target: other protein kinases (each individual kinase)
Test: Standardized radiometric kinase assays, IC50 over 10 drug concentrations
Type: biochemical
Conditions: Pim-2(h); estimated
property: IC50 (nM)

compound	property	measurement-unit	endpoint-value
Clc1ccccc1Nc1nc2c(-c3nnc[nH]3)cccc2c2cnccc12 [A]	IC50	nM	6

====

System: K-562
Assay: Cell proliferation modulatory activity, K-562
Type: cell-based
Conditions: Homo sapiens, K562; Table 45; read-out: K-562 IC50

compound	IC50
OCCNc1nc2c(-c3nnc[nH]3)cccc2c2cnccc12	> 10 µM
COc1cc(Nc2nc3c(-c4nc[nH]n4)cccc3c3cnccc23)ccc1F	< 5 µM
N#Cc1cccc(Nc2nc3c(-c4nc[nH]n4)cccc3c3cnccc23)c1	> 10 µM
Fc1cc(F)cc(Nc2nc3c(-c4nnc[nH]4)cccc3c3cnccc23)c1	< 5 µM
NC(=O)c1cccc2c1nc(Nc1cccc(Cl)c1)c1ccncc12 [drawing 2246]	< 0.5 µM
Clc1ccccc1Nc1nc2c(-c3nnc[nH]3)cccc2c2cnccc12 [drawing 2209]	< 5 µM
Clc1ccc(Nc2nc3c(-c4nc[nH]n4)cccc3c3cnccc23)cc1	< 0.5 µM
Cc1cc(Nc2nc3c(-c4nnc[nH]4)cccc3c3cnccc23)ccc1F	> 10 µM
c1ccc(CCNc2nc3c(-c4nc[nH]n4)cccc3c3cnccc23)cc1	> 10 µM
c1cc(-c2nc[nH]n2)c2nc(NCC3CC3)c3ccncc3c2c1	> 10 µM

====

Molecular target: other protein kinases (each individual kinase)
Experiment: Standardized radiometric kinase assays, IC50 over 10 drug concentrations
Type: biochemical
Conditions: Rsk2(h); estimated
property: IC50 (µM)

given-smiles	measurement-unit	endpoint-value
Clc1ccccc1Nc1nc2c(-c3nnc[nH]3)cccc2c2cnccc12	µM	0.072

====

log10(IC50) reference
Molecular target: recombinant human PIM1 (Homo sapiens (Human), UniProt P11309)
Sequence (P11309 whole entry): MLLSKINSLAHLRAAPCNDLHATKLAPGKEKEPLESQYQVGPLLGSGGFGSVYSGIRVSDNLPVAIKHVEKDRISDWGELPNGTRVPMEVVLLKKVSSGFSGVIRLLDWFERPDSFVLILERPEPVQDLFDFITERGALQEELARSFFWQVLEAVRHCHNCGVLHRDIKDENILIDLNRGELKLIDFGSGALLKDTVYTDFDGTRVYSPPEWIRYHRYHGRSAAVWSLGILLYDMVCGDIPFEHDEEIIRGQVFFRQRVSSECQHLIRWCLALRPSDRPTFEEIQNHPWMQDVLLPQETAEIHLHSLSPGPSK
Assay: PIM-1 kinase activity in cell-free in vitro assay
Type: biochemical
Conditions: cell-free
property: log10(IC50) (log10 of the value in nM)

compound	endpoint-value
Cc1cccc(Nc2nc3cc(C(=O)O)ccc3c3sccc23)c1	2.72
N#Cc1cccc(Nc2nc3cc(C(=O)O)ccc3c3sccc23)c1	2.33
Fc1cccc(Nc2nc3cc(-c4nnn[nH]4)ccc3c3sccc23)c1	2.14
CCc1cccc(Nc2nc3cc(C(=O)O)ccc3c3sccc23)c1	2.91
N#Cc1cccc(Nc2nc3cc(C(=O)O)ccc3c3cnccc23)c1	1.76
O=C(O)c1ccc2c(c1)nc(Nc1cc(Cl)ccc1F)c1ccsc12	2.62
Fc1ccc(Nc2nc3cc(-c4nnn[nH]4)ccc3c3sccc23)cc1	2.24
CN(C)CCNC(=O)Cc1cccc(Nc2nc3cc(C(=O)O)ccc3c3sccc23)c1	2.45
Clc1ccc(Nc2nc3cc(-c4nnn[nH]4)ccc3c3sccc23)cc1	2.70
Cc1cc(CNC(=O)c2cccc(Nc3nc4cc(-c5nnn[nH]5)ccc4c4sccc34)c2)no1 [drawing 1508]	2.76
O=C(O)c1ccc2c(c1)nc(Nc1cc(F)cc(C(F)(F)F)c1)c1ccsc12	2.53
O=C(O)c1ccc2c(c1)nc(Nc1ccc(F)cc1F)c1ccsc12	2.56
CNS(=O)(=O)c1cccc(Nc2nc3cc(C(=O)O)ccc3c3sccc23)c1	2.20
CCOc1cccc(Nc2nc3cc(-c4nnn[nH]4)ccc3c3sccc23)c1	2.58
NS(=O)(=O)c1cccc(Nc2nc3cc(-c4nnn[nH]4)ccc3c3sccc23)c1	1.94
O=C(O)c1ccc2c(c1)nc(Nc1cccc(Cl)c1)c1ncncc12	2.57
COc1cc(Nc2nc3cc(-c4nnn[nH]4)ccc3c3sccc23)cc(OC)c1	2.67
O=C(O)c1ccc2c(c1)nc(Nc1ccc(Cl)cc1)c1ccsc12	2.46
O=C(O)c1ccc2c(c1)nc(Nc1cccc(C(F)(F)F)c1)c1ccsc12	2.29
